- STUDY_TARGET: hFZD7 CRD-Fc (human, UniProt O75084 33-185)
- ASSAY_PROTOCOL: spot phage ELISA
# S/N annotations

Form field S/N, entry AAADDLEFWCHVMY [SEQ ID NO 48] : 56.1

Next:
Form field S/N, entry APADDLEFWCHVVY [SEQ ID NO 64] : 53.2

Form field S/N, entry APSDDLAFWCHVVY [SEQ ID NO 97] : 45

Form field S/N, entry AASDDLAFWCHVMY [SEQ ID NO 77] : 49.7
